# target-of-assay: F508delCFTR (Homo sapiens, UniProt P13569, DEL508-508)
# Construct: expressed in transfected cells; host or cells: CFBE41o- human lung-derived epithelial cells (CFBE4lo-F508delCFTR-HRP), doxycycline-inducible
# Sequence (P13569 with tags, fused parts or gaps DEL508-508): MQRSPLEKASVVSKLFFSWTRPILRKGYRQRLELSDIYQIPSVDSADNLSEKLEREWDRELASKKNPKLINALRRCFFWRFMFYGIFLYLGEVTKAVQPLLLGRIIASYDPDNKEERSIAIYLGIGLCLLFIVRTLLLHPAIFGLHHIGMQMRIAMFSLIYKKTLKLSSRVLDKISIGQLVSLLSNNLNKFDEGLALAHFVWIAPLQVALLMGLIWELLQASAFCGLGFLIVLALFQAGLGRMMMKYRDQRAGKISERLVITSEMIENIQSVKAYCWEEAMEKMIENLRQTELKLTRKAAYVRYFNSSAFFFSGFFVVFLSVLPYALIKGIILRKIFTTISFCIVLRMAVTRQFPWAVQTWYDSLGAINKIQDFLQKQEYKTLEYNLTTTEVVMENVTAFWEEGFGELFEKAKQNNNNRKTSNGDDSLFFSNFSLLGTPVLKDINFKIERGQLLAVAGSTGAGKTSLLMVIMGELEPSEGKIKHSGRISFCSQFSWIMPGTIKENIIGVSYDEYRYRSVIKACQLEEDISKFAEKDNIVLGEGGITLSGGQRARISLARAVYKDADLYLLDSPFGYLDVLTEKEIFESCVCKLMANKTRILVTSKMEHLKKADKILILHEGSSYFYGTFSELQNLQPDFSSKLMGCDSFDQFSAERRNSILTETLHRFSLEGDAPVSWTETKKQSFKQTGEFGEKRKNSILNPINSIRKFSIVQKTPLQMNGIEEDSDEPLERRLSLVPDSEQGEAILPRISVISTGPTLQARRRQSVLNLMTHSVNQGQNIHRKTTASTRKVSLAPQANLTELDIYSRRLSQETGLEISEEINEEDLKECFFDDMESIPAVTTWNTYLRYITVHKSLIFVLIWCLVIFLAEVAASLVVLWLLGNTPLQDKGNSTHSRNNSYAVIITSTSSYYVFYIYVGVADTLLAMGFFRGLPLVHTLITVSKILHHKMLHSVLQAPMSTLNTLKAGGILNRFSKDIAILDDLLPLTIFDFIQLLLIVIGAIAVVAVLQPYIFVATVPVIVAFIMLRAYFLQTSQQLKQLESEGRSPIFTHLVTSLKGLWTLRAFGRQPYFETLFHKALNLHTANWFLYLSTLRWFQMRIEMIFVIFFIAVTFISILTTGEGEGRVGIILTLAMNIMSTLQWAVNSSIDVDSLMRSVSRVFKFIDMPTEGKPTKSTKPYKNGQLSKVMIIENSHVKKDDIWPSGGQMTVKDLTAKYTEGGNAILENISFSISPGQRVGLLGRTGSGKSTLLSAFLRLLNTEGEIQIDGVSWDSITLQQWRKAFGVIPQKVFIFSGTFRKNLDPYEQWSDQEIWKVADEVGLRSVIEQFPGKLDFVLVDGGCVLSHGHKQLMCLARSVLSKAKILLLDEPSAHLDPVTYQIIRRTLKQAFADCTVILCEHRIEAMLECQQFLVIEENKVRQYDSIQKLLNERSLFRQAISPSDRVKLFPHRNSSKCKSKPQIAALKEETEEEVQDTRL
# assay-info: Cell Surface Expression-Horse Radish Peroxidase (CSE-HRP) Assay;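 on Maximum % activity (with co-corrector): co-corrector and positive control are both the same reference corrector at 2 µM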
# Type: cell-based
# assay-setup: with co-corrector (2 μM of 3-[(2R,4R)-4-({[1-(2,2-difluoro-1,3-benzodioxol-5-yl)cyclopropyl]carbonyl}amino)-7-methoxy-3,4-dihydro-2H-chromen-2-yl]benzoic acid); maximum at any tested concentration, normalized to on-plate positive control
assay-readout: Maximum % activity (with co-corrector)

- molecule: "COc1ncc(CN[C@@H]2[C@@H](C(C)(C)C)[C@H](C(=O)O)N(C(=O)C3CCCCC3)[C@@H]2c2ccccc2)c(OC)n1 (racemic) [III-29]"
  target-of-assay: "F508delCFTR (Homo sapiens, UniProt P13569, DEL508-508)"
  assay-result: "++ (≥150 and <350)"
- molecule: "O=C(O)[C@H]1[C@H](C2CC2)[C@@H](Nc2cc(C(F)(F)F)ccn2)[C@@H](c2ccccc2)N1C(=O)C1CCCCC1 (racemic) [III-33]"
  target-of-assay: "F508delCFTR (Homo sapiens, UniProt P13569, DEL508-508)"
  assay-result: "++ (≥150 and <350)"

====

# target-of-assay: F508delCFTR (Homo sapiens, UniProt P13569, DEL508-508)
# Construct: expressed in transfected cells; host or cells: CFBE41o- human lung-derived epithelial cells (CFBE4lo-F508delCFTR-HRP), doxycycline-inducible
# assay-info: Cell Surface Expression-Horse Radish Peroxidase (CSE-HRP) Assay
# Type: cell-based
# assay-setup: test compound without co-corrector; read-out: EC50 (without co-corrector)
assay-readout: EC50

- compound: "COc1ccc(S(F)(F)(F)(F)F)cc1CN[C@H]1[C@H](C(C)(C)C)[C@@H](C(=O)O)N(C(=O)OC(C)C)[C@H]1c1ccccc1"
  assay-result: "1000 to 10000 nM"

Here are 5 compounds. What values of EC50 were reported for them?
1. COc1ncc(C2CCC2)cc1CN[C@H]1[C@H](C(C)(C)C)[C@@H](C(=O)O)N(C(=O)[C@H]2CCCCO2)[C@H]1c1ccccc1F
2. COc1ccc(C(C)(C)C)cc1CN[C@H]1[C@H](C(C)(C)C)[C@@H](C(=O)O)N(C(=O)c2ccc(Oc3ccccn3)cc2)[C@H]1c1cccnc1N(C)C
3. COc1ncc(C(F)(F)F)cc1N[C@@H]1[C@@H](C(C)(C)C)[C@H](C(=O)O)N(C(=O)C2CCCCC2)[C@@H]1c1ccccc1 (racemic)
4. COc1ccc(C(C)(C)C)cc1CN[C@H]1[C@H](C(C)(C)C)[C@@H](C(=O)O)N(C(=O)c2cnn(C)c2-c2ccccc2)[C@H]1c1ccccc1
5. CC(C)OC(=O)N1[C@H](c2ccccc2)[C@H](Nc2cccc(C(F)(F)F)n2)[C@@H](C(C)(C)C)[C@@H]1C(=O)O (racemic)

Result block:
1: 1000 to 10000 nM; 2: < 1000 nM; 3: < 1000 nM; 4: 1000 to 10000 nM; 5: 1000 to 10000 nM

====

Assign pEC50 to each entry below.
# target-of-assay: F508delCFTR (Homo sapiens, UniProt P13569, DEL508-508)
# Construct: expressed in transfected cells; host or cells: CFBE41o- human lung-derived epithelial cells (CFBE4lo-F508delCFTR-HRP), doxycycline-inducible
# assay-info: Cell Surface Expression-Horse Radish Peroxidase (CSE-HRP) Assay
# Assay type: cell-based
# assay-setup: test compound without co-corrector; read-out: EC50 (without co-corrector)
# Experimental: Cell Surface Expression-Horse Radish Peroxidase (CSE-HRP) Assay The development was achieved by expressing the F508delCFTR mutation along with a horseradish peroxidase (HRP) in the fourth exofacial loop, and then measuring the HRP activity using luminescence readout from these cells, CFBE4lo-F508delCFTR-HRP, that were incubated overnight with the test corrector compounds, either without or with the co-corrector. […] The raw counts from the experiment were analyzed using Accelrys® Assay Explorer v3.3. […]
pEC50: −log10 of the molar value.

Here are 4 compounds. What values of pEC50 were reported for them?
1. COc1nc2ccccc2cc1CN[C@H]1[C@H](C(C)(C)C)[C@@H](C(=O)O)N(C(=O)OC(C)C)[C@H]1c1ccccc1C
2. COc1nc(C(C)(C)C)ccc1CN[C@H]1[C@H](C(C)(C)C)[C@@H](C(=O)O)N(C(=O)[C@H]2OC[C@H]3CCC[C@H]32)[C@H]1c1ccccc1 (relative stereo)
3. COc1ccc(C(C)(C)C)cc1CN[C@H]1[C@H](C(C)(C)C)[C@@H](C(=O)O)N(C(=O)c2cnn(C(C)(C)C)c2C(C)C)[C@H]1c1ccccc1
4. COc1ccc(C(F)(F)F)cc1CN[C@H]1[C@H](C(C)(C)C)[C@@H](C(=O)O)N(C(=O)OC(C)C)[C@H]1c1cccnc1OC(C)C

Result block:
["5.00 to 6.00", "5.00 to 6.00", "5.00 to 6.00", "5.00 to 6.00"]
